- ASSAY: qHTS assay to identify small molecule antagonists of the estrogen receptor alpha (ER-alpha) signaling pathway using the BG1 cell line in the presence of 0.1 nM 17-beta-estradiol - cell viability counter screen (AID 1259241); note: nearly all actives have a fitted effect of over 40% in size
- ASSAY_CONTEXT: VM7Luc4E2 (BG1) viability, CellTiter-Fluor protease, 22 h, 0.1 nM estradiol agonist added; series mostly up to 92.4 µM
Results filed as inconclusive are left out. The source made the active and inactive calls. Calls come from the whole dose curve; as a rule, active = well fitted cell-killing curve with a large enough effect in the repeat runs; inconclusive = weak or mixed curves, or effect the other way; inactive = flat fitted curve, though single readings scatter.
Reply using exactly one outcome from YES (active), NO (inactive)

The following compounds have reported results that may help.
CC(C)(C)CC(C)(C)c1ccc(OCCOCC[N+](C)(C)Cc2ccccc2)cc1	NO
CC(C)(C)NC(=O)[C@@H]1C[C@@H]2CCCC[C@@H]2CN1C[C@@H](O)[C@H](Cc1ccccc1)NC(=O)[C@H](CC(N)=O)NC(=O)c1ccc2ccccc2n1	YES
CCCCN1CCCC[C@H]1C(=O)Nc1c(C)cccc1C	NO

Which outcome did this test record for the compound NC(=O)C1(N2CCCCC2)CCN(CCCN2c3ccccc3CCc3ccc(Cl)cc32)CC1 ?
NO

Which outcome did this test record for the compound Fc1ccc([C@@H]2CCNC[C@H]2COc2ccc3c(c2)OCO3)cc1 ?
NO

Which outcome did this test record for the compound CCC(C)(C)C1CCCCC1OC(C)=O (stereo not given) ?
NO

Which outcome did this test record for the compound CC(=O)OCC(C)OC(C)=O (stereo not given) ?
NO

Which outcome did this test record for the compound CCOC(=O)O[C@H](C)OC(=O)c1ccc2c(c1)cc(C(=O)NC1CCN(C(C)C)CC1)n2Cc1cc(-c2ccc(Cl)s2)on1 ?
YES

====

- ASSAY: qHTS assay to identify small molecule agonists of the retinoic acid receptor (RAR) signaling pathway (AID 1159553); note: potency is the fitted concentration of half-maximal effect
- ASSAY_CONTEXT: C3RL4 RARE luciferase reporter, agonist, 6 h; series mostly up to 73.3 µM
Records with an inconclusive call do not appear. Activity calls are given as the source filed them. Calls follow the shape of the dose curve; as a rule, active = well fitted activation curve with a large enough effect in the repeat runs; inconclusive = weak or mixed curves, or effect the other way; inactive = no such curve, though single readings can be large or run the other way.
METRIC_NAME: Potency

// known answers, use as guide
O=c1[nH]cnc2nc[nH]c12	inactive
ON=C1CCCC1	inactive
COCCCC/C(=N\OCCN)c1ccc(C(F)(F)F)cc1	inactive
O=C(Nc1ccc(Oc2ccc(Cl)cc2)c(Cl)c1)c1cc(I)cc(I)c1O	inactive
COc1c(C)c2c(c(O)c1C/C=C(\C)CCC(=O)O)C(=O)OC2	inactive
Cc1onc(-c2c(Cl)cccc2Cl)c1C(=O)N[C@@H]1C(=O)N2[C@@H]1SC(C)(C)[C@@H]2C(=O)O	inactive
CCCCCCCCCCCCCCCS(=O)(=O)Oc1ccccc1	inactive
O=C(Nc1cccc([N+](=O)[O-])c1)c1cc2ccccc2cc1O	969 nM (active)

Determine its reported Potency: CCOc1nc2cccc(C(=O)OC(C)OC(=O)OC3CCCCC3)c2n1Cc1ccc(-c2ccccc2-c2nn[nH]n2)cc1 (stereo not drawn)
inactive

====

- ASSAY: qHTS assay to identify small molecule antagonists of the estrogen receptor alpha (ER-alpha) signaling pathway - cell viability counter screen (AID 743074);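 note: HEK293 cells carrying ER-alpha-UAS-bla reporter stimulated with 17beta-estradiol; nearly all actives have a fitted effect of over 45% in size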; note: potency is the fitted concentration of half-maximal effect
- ASSAY_CONTEXT: ERalpha-bla HEK293 viability, CellTiter-Glo luminescence, 18 h; series mostly up to 69.4 µM
Records with an inconclusive call do not appear. Active and inactive are the calls of the source. Calls follow the shape of the full dose curve.
METRIC_NAME: Potency

// known answers, use as guide
C[C@H](CCC(=O)O)[C@H]1CC[C@H]2[C@@H]3CC[C@@H]4C[C@H](O)CC[C@]4(C)[C@H]3CC[C@]12C	54.9 µM (active)
Cc1ccc2oc(CN(Cc3ccccc3)C(=O)Nc3c(F)cc(F)cc3F)c(-c3ccc(Cl)cc3)c2c1	inactive
Cc1onc(-c2ccccc2Cl)c1C(=O)N[C@@H]1C(=O)N2[C@@H]1SC(C)(C)[C@@H]2C(=O)O	inactive
COc1c(C)c2c(c(O)c1C/C=C(\C)CCC(=O)O)C(=O)OC2	inactive
CCC1=C[C@@H]2CN(C1)Cc1c([nH]c3ccccc13)[C@@](C(=O)OC)(c1cc3c(cc1OC)N(C)[C@H]1[C@@](O)(C(=O)OC)[C@H](OC(C)=O)[C@]4(CC)C=CCN5CC[C@]31[C@@H]54)C2	inactive

Determine its reported Potency: O=c1[nH]sc2ccccc12
inactive

Determine its reported Potency: CC1=NC(C)OC1C (stereo not drawn)
inactive

Determine its reported Potency: O=S1(=O)CC(Cl)(Cl)C(Cl)(Cl)C1
49 µM (active)

Determine its reported Potency: O=C1C=CC(=O)N1c1ccc(Cc2ccc(N3C(=O)C=CC3=O)cc2)cc1
21.9 µM (active)

Determine its reported Potency: O=C1c2c(O)ccc(Nc3ccc(CCO)cc3)c2C(=O)c2c([N+](=O)[O-])ccc(O)c21
inactive

Determine its reported Potency: CCOC(=O)O[C@H](C)OC(=O)c1ccc2c(c1)cc(C(=O)NC1CCN(C(C)C)CC1)n2Cc1cc(-c2ccc(Cl)s2)on1
45.8 µM (active)
